molecular target: JAK2 (Homo sapiens (Human)); experiment: Jak Biochemical HTRF Assay, JAK2; conditions: HTRF biochemical assay, GST-tagged catalytic domain; top concentration tested […]
Sequence (O60674 849-1124): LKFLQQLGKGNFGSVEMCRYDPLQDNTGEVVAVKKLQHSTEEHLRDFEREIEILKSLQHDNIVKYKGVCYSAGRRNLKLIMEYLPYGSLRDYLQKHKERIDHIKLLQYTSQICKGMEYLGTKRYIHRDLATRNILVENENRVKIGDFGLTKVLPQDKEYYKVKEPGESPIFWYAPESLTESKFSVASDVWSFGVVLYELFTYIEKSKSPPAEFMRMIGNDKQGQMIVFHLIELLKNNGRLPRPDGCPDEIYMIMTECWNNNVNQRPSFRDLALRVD
pIC50: −log10 of the molar value.
attribute_measured: pIC50

Previously resolved entries follow.
>>> print(df.to_string())
                                   compound  test_value
0  CC(=O)N1CCN(C2CCC(CC#N)(n3cc(C(N)=O)c(Nc4ccc(F)cc4)n3)CC2)CC1 (stereo not shown) [Example 40-76]        6.65
1  N#CCC1(n2cc(C(N)=O)c(Nc3ccccc3)n2)CN(C(=O)Nc2ccc(F)c(F)c2)C1 [Example 38-21]        6.76
2  CC(O)c1ccc(Nc2nn(C3(CC#N)CCN(C(=O)OC(C)(C)C)CC3)cc2C(N)=O)cc1 (stereo not shown) [Example 9-9]        8.22
3  Cc1cnc(F)c(CN2CCC(CC#N)(n3cc(C(N)=O)c(Nc4ccnc(F)c4)n3)CC2)c1 [Example 22-22]        7.89

I = N#CCC1(n2cc(C(N)=O)c(Nc3ccnc(F)c3)n2)CCN(Cc2ccc(F)cn2)CC1 [Example 22-36]
II = N#CCC1(n2cc(C(N)=O)c(Nc3ccnc(F)c3)n2)CCC(N2CC(F)C2)CC1 (stereo not shown) [Example 40-104]
In: Higher pIC50 between I and II ? Kindly give the label for the entry you pick.
Out: II
(II: 7.96, I: 7.01)

a = N#CCC1(n2cc(C(N)=O)c(Nc3ccccc3)n2)CCN(C(=O)C(c2ccccc2)c2ccccc2)CC1 [Example 34-33]
b = N#CCC(=O)N1CCC(CC#N)(n2cc(C(N)=O)c(Nc3ccnc(F)c3)n2)CC1 [Example 34-49]
c = CC(C)(C)OC(=O)N1CCC(CC#N)(n2cc(C(N)=O)c(Nc3ccc(N4CCOCC4)nc3)n2)CC1 [Example 12-4]
d = N#CCC1(n2cc(C(N)=O)c(Nc3ccccc3)n2)CCN(Cc2ccc(C#N)cc2)CC1 [Example 21-4]
In: Highest pIC50 first, then in falling order down to the smallest. State the ranking by listing the labels in the requested order.
Out: c, b, d, a

P = N#CCC1(n2cc(C(N)=O)c(Nc3ccc(F)cc3)n2)CCN(c2cccnc2)CC1 [Example 3-30]
Q = CN1CCC(OC(=O)N2CCC(CC#N)(n3cc(C(N)=O)c(Nc4ccccc4)n3)CC2)CC1 [Example 30-42]
R = CCS(=O)(=O)N1CCC(CC#N)(n2cc(C(N)=O)c(Nc3ccccc3)n2)CC1 [Example 37-3]
S = N#CCC1(n2cc(C(N)=O)c(Nc3ccnc(F)c3)n2)CCN(Cc2cscn2)CC1 [Example 22-25]
In: Highest pIC50 first, then in falling order down to the smallest. State the ranking by listing the labels in the requested order.
Out: P, R, S, Q

A = N#CCC1(n2cc(C(N)=O)c(Nc3ccc(F)cc3)n2)CCN(c2cc(F)ccn2)CC1 [Example 3-44]
B = CC1=NOC(CN2CCC(CC#N)(n3cc(C(N)=O)c(Nc4ccnc(F)c4)n3)CC2)C1 (stereo not shown) [Example 22-42]
In: For A and B , which recorded pIC50 is lower? Kindly give the label for the entry you pick.
Out: B

I = Cn1cnc(S(=O)(=O)N2CCC(CC#N)(n3cc(C(N)=O)c(Nc4ccccc4)n3)CC2)c1 [Example 37-7]
II = CC(F)(F)C(=O)N1CCC(CC#N)(n2cc(C(N)=O)c(Nc3ccnc(F)c3)n2)CC1 [Example 34-40]
In: Higher pIC50 between I and II ? Kindly give the label for the entry you pick.
Out: II

1 = N#CCC1(n2cc(C(N)=O)c(Nc3ccccc3)n2)CCN(S(=O)(=O)c2ccc(-c3ccccc3)cc2)CC1 [Example 37-14]
2 = CC(C)(C)OC(=O)N1CCC(CC#N)(n2cc(C(N)=O)c(Nc3ccccn3)n2)CC1 [Example 13-3]
3 = COc1ccc(N2CCC(CC#N)(n3cc(C(N)=O)c(Nc4ccc(F)cc4)n3)CC2)cn1 [Example 3-53]
In: Highest pIC50 first, then in falling order down to the smallest. State the ranking by listing the labels in the requested order.
Out: 3, 1, 2

A = C[C@@H]1C[C@](CC#N)(n2cc(C(N)=O)c(Nc3ccccc3)n2)CCN1C(=O)OC(C)(C)C (racemic) [Example 2-11]
B = N#CCC1(n2cc(C(N)=O)c(Nc3ccc(F)cc3)n2)CCC2(CC1)OCCO2 [Example 6-6]
In: Higher pIC50 between A and B ? Kindly give the label for the entry you pick.
Out: B

P = N#CCC1(n2cc(C(N)=O)c(Nc3ccc(F)cc3)n2)CCN(C(=O)OCC(F)(F)CO)CC1 [Example 30-11]
Q = COc1cc(F)cc(N2CCC(CC#N)(n3cc(C(N)=O)c(Nc4ccc(F)cc4)n3)CC2)c1 [Example 3-12]
R = N#CCC1(n2cc(C(N)=O)c(Nc3ccnc(F)c3)n2)CCN(Cc2cncc(F)c2)CC1 [Example 22-38]
In: Highest pIC50 first, then in falling order down to the smallest. State the ranking by listing the labels in the requested order.
Out: R, P, Q
(R: 8.30, P: 7.96, Q: 7.40)
